test system: K4 kissing-loop RNA reporter; assay: apparent KD of K4 kissing-loop reporter; higher = weaker reporter binding; details: Eterna round: R107; input ligand: none;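 also: bound reporter read as fluorescence of individual clusters on recovered sequencing chips by microscopy, with normalized cluster intensities fitted with a binding model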
apparent KD of K4 kissing-loop reporter for assorted sequences
Parameter: apparent KD of K4 kissing-loop reporter (nM)

* UGUGAACAAAAGUAGAGUGGACCACUAUAGCGAGGACCGGUACGGCCGCCACUCGUGCAUGAAUUCAGUGAUGUUGAAAAGAGCU [whbob_EX_Tryp_A_t12] | 330
* UGUCAUUGGUCGGCCGCCACUAGGACCGGGAGUAACCUAGUGAUGUUAGUGUGCUCGGCCGCCACUAGGACCGGGACCGAUGACU [KL-SSTryp-B22 #DoubleAptamer] | 157
* GUGCAGUGAUGUUGCACGAGGAAAGACGAUACCAGCCGUAAAUAAGGCCCUUGGCAGCGUAGGCUAGCAUAAAGCAUGCUAGUCC [Edeson] | 111
* CGUGCCCAGCCGGAUACCAGUGACCCGCUGGGAACCGCGGGCCCAGAGUGAUGUUCGGGACACCCUUGGCAGCCGCCUGGGCGGU [#2 Same State - Theophylline B Attempt #11 (HarryS)] | 584
* AAACAUUGGUCUGAUACCAGUUAGACCGAUAGGUCAAAACUGGAGUGAUGUUCCUAAAAUAACCCUUGGCAGCAGACCGAUGAAA [MAT - Same State Theophlline B - Mod of Eli - D4] | 596

* * *

tested on: MS2 coat protein; experiment: apparent KD of MS2 coat protein; designed switch direction (-1 OFF switch, 1 ON switch): -1; higher = weaker reporter binding; settings: input ligand: none
apparent KD of MS2 coat protein for assorted sequences
Parameter: apparent KD of MS2 coat protein (nM)

• CAGUACUGAGGAUAUACAUGAGGAUCACCCAUGUGUCCUAUAUUAGGAAACUAGGUAUGUAGAAGGCAGUACUG [Omei Ex3 Mod of Eli 4.27 v5] (Eterna round: R97, puzzle: Exclusion 3) = 340
• CCUAGUUGGUAAGGAUAUCCUACACUGUUCUGACCCGGGCAUGCUACAUGAGGAUCACCCAUGUGGGAGAAGGUGCGUCAACGC [Design 14] (Eterna round: R96, puzzle: Exclusion NG 2) = 30.6
• AUUUACAAGCUAAGAUCCUACAUGAGGAUCACCCAUGUGGUCCGGUGACGUGAGUCACCGGACUUAGCUCGUCUUGG [salish99_S_TOV1_R5_083] (Eterna round: R97, puzzle: Sensor, turn-off variant 1) = 61.4
• UUUCGUGUGCGGGCUUUUUACAUGAGGAUCACCCAUGUCCUCUGCUUGUCUUGUCUUGGGCUUUUUUUGGGUUCGGG [-19.4, -42 kcal, A 8%] (Eterna round: R97, puzzle: Sensor, turn-off variant 1) = 836
• AGAUGCUCAAGUCGACAUGAGGAUCACCCAUGUACAGUUAAUGAGGAUAUCUGAGACAAAUAGUAGGAGAAGGCGUGAACAUGA [Ex NG3 #10] (Eterna round: R96, puzzle: Exclusion NG 3) = 57.6

* * *

system: MS2 coat protein; experiment: apparent KD of MS2 coat protein; higher = weaker reporter binding; conditions: Eterna round: R107; input ligand: tryptophan 2.4 mM
Parameter: apparent KD of MS2 coat protein (nM)

- AUCGUACCUAAUGAUACCAGCAAGUGAUCAUAACAUGAGGAUCACCCAUGUAAUCAGUGAUGCCCUUGGCAGCAUAAUCGUUACA [Same State - Theophylline B (Freestyle 2)]: 169
- UCGCCCAGAAAGGAUUCCUGGGAUAUGGAAGGAGCGCUGAUGCCAGCAGGUAGGUCGCCAACGGACAUGAGGAUCACCCAUGUAC [Same State - Arginine A (Freestyle 7)]: 18
- UGUAUGGACUGAAGGAGCGACUCAAAAUAACAUGAGGAUCACCCAUGUAAGGCGAAAGCCGGUCAGGUAGGUCGCAGUCCAUACU [ArgBX 3]: 11.6
- UGGUACAUGAGGAUCACCCAUGUUCCAGAUACCAGACUCCCGGUGGUCCCUUGGCAGCUGGUGGUACAUGAGGAUCACCCAUGUG [Exclusion Theophylline A GF17]: 30.8
- UGUGUCGUCUGAAGGAGCGGCUCUUGAUCCUCGUGGGACAUGAGGAUCACCCAUGUCUCGAGCCAGGUAGGUCGCAGGCGGCACA [#27 Exclusion - Arginine B]: 20.7

* * *

test system: MS2 coat protein; test: apparent KD of MS2 coat protein; designed switch direction (-1 OFF switch, 1 ON switch): -1; higher = weaker reporter binding; conditions: input ligand: microRNA oligo, concentration not stated
Please note: 1 applies when apparent KD of MS2 coat protein is 40 nM or greater, and -1 applies otherwise.

- UUUUUAUAUGAAGGAUAUACUUAACAUGAGGAUCACCCAUGUGGUGUUGUGAGUGAGUGAGUUUAGUAGAAGGUCAAUUAGUGU [JMF's solution 102] (Eterna round: R96, puzzle: Exclusion NG 2): 1
- GCUCGCGGGCAAGGAUAUCCUACGCUGUUCUGGUUCGUGUCUGUUACAUGAGGAUCACCCAUGUGGGAGAAGGUGCACCAGGGC [Design 48] (Eterna round: R96, puzzle: Exclusion NG 2): -1
- UGAUCUAGCGGAGGAUAUACAUGAGGAUCACCCAUGUAUACUCUAUGACCGUAGUCGUGGAGCGUGUAGAAGGCCGCUAGAUCU [JL ENG2 3.76] (Eterna round: R96, puzzle: Exclusion NG 2): -1
- CCACUGCAUUGCAGUGUCGACAUGAGGAUCACCCAUGUGUCGCAGGCGCCGAGCUUUCCGCUCGUUACGUAUCGACG [Arorin] (Eterna round: R96, puzzle: Sensor v2, turn-off variant): 1
- UAUUUAUAGCAAGGAUAUGAUUAUUAUUAUUUAUCAGAAGGUGCACAUGAGGAUCACCCAUGUUUUAUAUAUAAUAAUUUAAUU [Title] (Eterna round: R96, puzzle: Exclusion NG 1): 1

* * *

tested on: MS2 coat protein; test: apparent KD of MS2 coat protein; designed switch direction (-1 OFF switch, 1 ON switch): -1; higher = weaker reporter binding; conditions: Eterna round: R95; input ligand: FMN 200 uM
Parameter: apparent KD of MS2 coat protein (nM)

- UUAUAAACAUAGGAUAUCGAAUAAAUUAUUUAACGAGAAGGAUGAACAUGAGGAUCACCCAUGUGGUAUCAUGG [Mat - Exclusion 6 - JL Mod - D30] (puzzle: Exclusion 6): 170
- GGCGACCACCUCGUGCACUACAUGAGGAUCACCCAUGUUUUUCGCUCGUCUUAUGCGCCAACCUCCCAAACACUAAG [Gelaesxe] (puzzle: Sensor v3, turn-off variant 1): 34.6
- GAUUGACAUGAGGAUCACCCAUGUGAGGAUAUCGGCUGGACCGUGUUGGCUUGGGUUUCGAGAAGGCGCAUAGG [Exclusion 1 V46] (puzzle: Exclusion 1): 70.5
- UAAUACAAGUAGAGAUUCUACAUGAGGAUCACCCAUGUGCUCGUCUUAUAAAGUACUAUCACGAAAGUGAUAGUACA [Mat - Sensor v3 - turn-off var 1 - Eli Mod - D97] (puzzle: Sensor v3, turn-off variant 1): 23
- GAUUAUGCGAGCUUUAGGGACAUGAGGAUCACCCAUGUUCGUCUUAUUGAUCUGGGUACGCUAACAUACCUAAAUCU [JMF 42] (puzzle: Sensor v3, turn-off variant 1): 82.2
- ACACAGAUAGGAUAUCGGACUAUGGACAUGAGGAUCACCCAUGUGCGUCCAAUGUCCGACCGAGAAGGAUCAACAG [Teesvete] (puzzle: Exclusion 5): 146
- UUUCGGCGGACCGUGGCUUUUUGCUCGUCUUAUGCUACGACAUGAGGAUCACCCAUGUGGUGGUGGUCCGUUGUUGU [Grok-var2-11 mod JAL] (puzzle: Sensor v3, turn-off variant 2): 59.7
- AAGAAACAUGAGGAUCACCCAUGUGAGGAUAUGAUCAAGAAAAGAAAAGAAAGAAGAUUCAGAAGGCACAAAGG [salish99-ex1_r3_056] (puzzle: Exclusion 1): 124
- UUUAAAAUUUCAAUCUUCGCUGGCAAACUUGCGCCAGCUACAUGAGGAUCACCCAUGUUUUUUGCCCGUCUUAUUCU [Inisti] (puzzle: Sensor v3, turn-off variant 2): 24.3
- AGUUGGCGAGGAUAUACAUGAGGAUCACCCAUGUGAAGAAGAAGAGUGAGGAAGAAAAGUAGAAGGCGCUGACA [Mat - Exclusion 3 - Mod of Salish D38] (puzzle: Exclusion 3): 87.9
- AGAGAGUCAGGAUAUCGAAGGUAGAGAAAAGGAGAGAGGUACGAGAAGGGACAUGAGGAUCACCCAUGUAGGUG [JR_Exclusion4)Sub014] (puzzle: Exclusion 4): 526
- GCUGCAUCAGGAUAUAUACGGUAUCACAUGAGGAUCACCCAUGUUCGUGUGGAACUGAACGUAGAAGGGAUUAGAU [Aramaa] (puzzle: Exclusion 5): 31.1
- CUGGUCCGAGGAUAUAUUAAGUGAUACAUGAGGAUCACCCAUGUAAUUUGAUGGAAAUAAAUAGAAGGCGGACUAG [Mat - Exclusion 5 - JL mod - D44] (puzzle: Exclusion 5): 34.2
- CGUGACUGAGGAUAUCUAUAAUGUCACAUGAGGAUCACCCAUGUCCAGCGAAAGCUGGAGGGAGAAGGCAGUCACG [Fiskers Ex 5 - 33] (puzzle: Exclusion 5): 29.4
- AACCAUGAAGGAUAUGACUUAACGAACAUGAGGAUCACCCAUGUGACCGAGCAGUGUUGAUCAGAAGGUUAAGGUG [Rier] (puzzle: Exclusion 5): 101
- GCGCAGGUAGGAUAUCGAGCUAAGAACAUGAGGAUCACCCAUGUGUUCGGUAGCCAACUUCGAGAAGGACCAAAUA [Ceati] (puzzle: Exclusion 5): 23.9
- AGUACUAACACGAAAGUGUUAGUACUAUAAGCUUGUGAAACAUGAGGAUCACCCAUGUCCUCAUAAGCUCGUCUUAU [Mat - Sensor v3 - Turn-off var 2 - D102] (puzzle: Sensor v3, turn-off variant 2): 17.3
- CUAGUCCGAGGAUAUAUUAUGUGAUACAUGAGGAUCACCCAUGUUAUAUGAUGGAUGUUAAUAGAAGGCGGACUAG [Mat - Exclusion 5 - JL mod - D72] (puzzle: Exclusion 5): 246
- GGUUGGCGAGGAUAUACAUGAGGAUCACCCAUGUGAGAUAAAAAAGUGAGGAAGAAAAGUAGAAGGCGCUGACG [salish99_ex3_r3_010] (puzzle: Exclusion 3): 1140
- CGUACUGAAGUCAGGAUAUUGUCUCGGAUACGAAACAAGAAGGGACAUGAGGAUCACCCAUGUGGACAGUACGA [Malc #30 mod 6] (puzzle: Brourd's mod of Exclusion 4): 38.3
